Form field: Kd (one value per entry).
Biological target: T1, GGA1 VHS (human), Q9UJY5
T1 chain: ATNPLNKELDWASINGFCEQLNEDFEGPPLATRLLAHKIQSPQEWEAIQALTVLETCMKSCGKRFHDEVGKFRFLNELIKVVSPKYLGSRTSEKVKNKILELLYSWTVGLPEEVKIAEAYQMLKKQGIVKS
Experiment: fluorescence polarisation; displacement of a FITC-labelled probe peptide (5 nM in the measurement) from the protein domain (1-2 fold over the probe's KD) by a dilution series of unlabelled peptide; room temperature; 50 mM sodium phosphate pH 7.4; KD calculated from the displacement curve; for KPNA4 ARM one probe for each pocket
# number only, unit µM dropped from output

binder	result.units	Kd
DLLESPDVGLLKLAS (modifications not checked) [JUN_(59–73), phosphomimetic (E), P05412 59-73]	µM	450

Indicate the recorded Kd value for this binder: ETYYLSDEPLLGPPVG (modifications not checked) [GTSE1_(145–160), phosphomimetic (E), Q9NYZ3 145-160]
199

Indicate the recorded Kd value for this binder: INLFEKEKEMKKSPTS (modifications not checked) [GTSE1_(145–160), wild‐type, Q9NYZ3 145-160]
96

Data origin, for the record: paper PMC10333884
